- recordedConditions: buffer; pH 7.4; 200.0 µM
propertyName: solubility kinetic

These recorded examples may help you get a feel for the data.
Cc1cccc(C)c1N1CCN(c2c(C)cccc2C)CC1 = < 0.0003 mg/mL
CCNC(=O)Nc1ccc(S(=O)(=O)Nc2cnc(C)nc2C)cc1 = > 0.0524 mg/mL

Task: What value of measured solubility kinetic is listed for CC1CC(C)CN(CC(O)COCc2ccccc2F)C1.Cl (centres undefined) ?
Result: > 0.0498 mg/mL

Task: Same read-out for `Cc1ccc(S(=O)(=O)N2CCOCC2)cc1NC(=O)COC(=O)c1cncc(Br)c1` ?
Result: > 0.0748 mg/mL

Task: Same read-out for `CC(C)OCCCNC(=O)CN1CCN(Cc2ccc(Cl)cc2)C1=O` ?
Result: > 0.0552 mg/mL

Task: Same read-out for `Br.COc1ccc(C2=CSC3=NCCN23)cc1OC` ?
Result: > 0.0515 mg/mL

Task: Same read-out for O=C(NCc1ccc(F)cc1)C1CC(=O)N(C2CCCC2)C1 (centres undefined) ?
Result: > 0.0457 mg/mL

Task: Same read-out for `Cc1cc(C)c(C#N)c(SCC(=O)Nc2cc(C)on2)n1` ?
Result: 0.0021 mg/mL

Task: Same read-out for `Cc1ccc2nc(-c3ccccc3NC(=O)CCC(=O)O)c(=O)[nH]c2c1` ?
Result: > 0.0527 mg/mL

* * *

The following compounds are listed with their measured solubility kinetic values.
- recordedConditions: buffer; pH 7.4; 200.0 µM
Your answer should be a plain number; it is taken to be in µg/mL.

These recorded examples may help you get a feel for the data.
O=[N+]([O-])c1ccccc1-c1ccc(C(=S)N2CCCC2)o1 = 9.4
CCOc1ccccc1NC(=O)Nc1cc(S(=O)(=O)N(C)C)ccc1C = 0.6
COc1cccc(NC(=O)C(C)N2C(=O)c3ccccc3C2=O)c1 (stereo unspecified) = 27.3

Shifting focus to the compound that follows.
Task: What value of measured solubility kinetic is listed for CC(=O)Nc1ccc(NC(=O)C(C)OC(=O)c2ccc(S(=O)(=O)N3CCCCCC3)cc2)cc1 (stereo unspecified) ?
Result: 9.6

* * *

- recordedConditions: buffer; pH 7.4; 200.0 µM
The following compounds are listed with their measured solubility kinetic values.
Your answer should be a plain number; it is taken to be in µg/mL.

These recorded examples may help you get a feel for the data.
Cc1ccc(C(=O)NCC(=O)Nc2ccc3c(c2)CCC3)cc1 = 3
CNC(=S)/N=C(\Nc1ccc(C)cc1)c1ccccc1 = 1.3
COc1cccc(-c2cc(C(=O)NC3CC3)c3ccccc3n2)c1 = 5.6
O=C(Nc1ccccc1NS(=O)(=O)c1ccc(F)cc1)C1CCC1 = 21.1
COc1ccccc1OCC(=O)Nc1ccc(NC(=O)COc2ccccc2OC)cc1 = 1.4

Task: What value of measured solubility kinetic is listed for `Cc1ccc(C(=O)NCCCN2CCOCC2)cc1Cl` ?
Result: 42.5

Task: Same read-out for S=C(NCC1CCCO1)c1ccc(Br)cc1 (stereo not drawn) ?
Result: 39

Task: Same read-out for `NC(=O)c1ccccc1NC(=O)c1cccc(C(=O)Nc2ccccc2C(N)=O)n1` ?
Result: 5.3

* * *

The following molecules are listed with their measured solubility kinetic values.
- recordedConditions: buffer; pH 7.4; 200.0 µM
Your answer should be a plain number; it is taken to be in µg/mL.

These recorded examples may help you get a feel for the data.
Cc1noc(C)c1COc1cccc(C(=O)Nc2ccc(Br)cc2F)c1 = 9.6
CC1=C/C(=C/N(C)C)C(=O)O1 = 15.7
Cc1ccc(CNC(=O)c2c(-c3ccccc3)noc2C)cc1 = 2.1

Shifting focus to the molecule that follows.
Task: What value of measured solubility kinetic is listed for `COCc1cc(=O)[nH]c2cc(NC(=O)c3cccc(OC)c3)c(C)cc12` ?
Result: 1.1
